Below, each entry is listed with its recorded self-cleavage kobs at 160 uM GlcN6P.
B1: glmS ribozyme (parent)
chain: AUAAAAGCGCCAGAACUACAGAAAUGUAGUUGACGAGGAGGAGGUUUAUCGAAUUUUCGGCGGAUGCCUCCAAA

# Variants of: B1
# experiment: self-cleavage kobs at 160 uM GlcN6P; higher = faster cleavage; RNA array
# measurement-parameters: with glucosamine-6-phosphate
Variants at the floor of the assay were thinned out.

C11U G32C A42G G59U    < 1e-05 s⁻¹
G13U A36U    < 1e-05 s⁻¹

Please give the documented self-cleavage kobs at 160 uM GlcN6P of A14G U31A C67G
0.000163 s⁻¹

Please give the documented self-cleavage kobs at 160 uM GlcN6P of U45C C50G G51A A53U G60C
< 1e-05 s⁻¹

Please give the documented self-cleavage kobs at 160 uM GlcN6P of G29U G66A
0.000716 s⁻¹
